# Ki per entry
Target: Cannabinoid receptor 2 (Homo sapiens, UniProt P34972)
Sequence (P34972 whole entry): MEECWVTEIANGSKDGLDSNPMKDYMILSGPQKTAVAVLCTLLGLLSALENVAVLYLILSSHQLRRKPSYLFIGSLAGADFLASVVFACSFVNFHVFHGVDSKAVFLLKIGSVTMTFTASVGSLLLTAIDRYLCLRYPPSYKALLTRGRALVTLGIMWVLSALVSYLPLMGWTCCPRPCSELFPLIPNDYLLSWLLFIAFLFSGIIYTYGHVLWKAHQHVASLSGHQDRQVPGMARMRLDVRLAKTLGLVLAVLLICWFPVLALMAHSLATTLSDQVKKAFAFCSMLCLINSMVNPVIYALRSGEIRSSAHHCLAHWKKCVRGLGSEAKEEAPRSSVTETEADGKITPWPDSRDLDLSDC
Assay: Displacement of [3H]-CP55940 from human recombinant CB2 receptor expressed in HEK293 cells after 90 mins by scintillation counting analysis
experimentalEndpoint: Ki

* COC[C@@H](COC(C)=O)N(C)C(=O)CC/C=C/CCCCC(Cl)CCCCCC(Cl)Cl (some centres not stated) | 860 nM
* COC[C@@H](COC(C)=O)N(C)C(=O)CC/C=C/CCCCC(Cl)CCCCCCCl (some centres not stated) | 1030 nM

Values from ChEMBL document CHEMBL3596185
